Test system: FOXO3 binding to the promoter region of DEPP1 in SH-EP/FOXO3 cells
Experiment: DEPP1-luciferase reporter assay of FOXO3 transcriptional activity
Format: cell-based
Conditions: initial screen, 50 μM compound
Text: The ability of these compounds to inhibit FOXO3 transcriptional activity was further examined by assessing their effect on FOXO3 binding to the promoter region of decidual protein induced by progesterone 1 (DEPP1) after transfecting a DEPP1-luciferase reporter plasmid into SH-EP neuroblastoma cells stably expressing a 4-hydroxy-tamoxifen (4OHT)-regulated FOXO3(A3)ERtm transgene. […]
resultType: potency in blocking FOXO3 binding to the promoter region of DEPP1, compared with 5ca

molecule	recordedMeasurement
CCCOc1ccc(NC(=N)Nc2nc(C)cc(NCCc3ccccc3)n2)cc1 [5db]	more potent than 5ca
CCCOc1ccc(NC(=N)Nc2nc(C)cc(Cl)n2)cc1 [5ba]	more potent than 5ca
CCCOc1ccc(NC(=N)Nc2nc(C)cc(NCc3ccccc3)n2)cc1 [5da]	more potent than 5ca
